Each recorded value in this set is attributed to patent US20230002757A1.

Test System: T1, BCMA on RPMI8226 cells (UniProt Q02223 1-184, limits assumed)
T1 construct: whole, on cells
T1 sequence (looked up): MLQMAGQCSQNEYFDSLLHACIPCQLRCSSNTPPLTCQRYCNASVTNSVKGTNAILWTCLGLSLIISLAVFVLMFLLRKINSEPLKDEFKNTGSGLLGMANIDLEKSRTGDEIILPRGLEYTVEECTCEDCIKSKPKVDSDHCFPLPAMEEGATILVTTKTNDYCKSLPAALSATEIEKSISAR
Assay Explanation: FACS on RPMI8226 cells; also: test concentration or dose not given here
Assay Readout: MFI (MFI)

Solved cases (2 shown):
### Prompt // query MFI value for entry NBL507-A1L1-P1R2-1B8-(44)-PME207-SEQF_D06 (VHH, purified VHH) VHH: QVQLVESGGGLVQPEGSLRLSCAASGSIFSIYAMGWYRQAPGKQRGLVAAITSGGDTFYADSVKGRFTISRDNARNTVYLQMNNLKSEDTAVYDCNGAPWGDHAPLVASWGQGTQVTVSS
### Response 1810

### Prompt // query MFI value for entry NBL507-A1L1-P1R2-1A1-(1)-PME207-SEQF_A01 (VHH, purified VHH; also called lAl) VHH: EVQLVESGGGLVQPGGSLRLSCAASGFTFRSSAMSWARQAPGKGLEWVSDIYPDGRTDYADSIKGRFTMSRDNAKNTVYLLMDSLKPEDTAVYHCQVGRYVSGVYYQPRGQGTQVTVSS
### Response 2420

[1] NBL507-A1L1-P1R2-1E2-(10)-PME207-SEQF_B02 (VHH, purified VHH) VHH: EVQLVESGGGLVQPGGSLRLSCAASGSISSIYAMGWYRQAPGKLRELVAAITTGGSTFYRDSVKGRFTISRDNVANTVYLQMNSLKPEDTAVYHCNGAPWGDIAPVAVSWGQGTQVTVSS
[2] NBL507-A1L1-P1R2-1D2-(9)-PME207-SEQF_A02 (VHH, purified VHH) VHH: QVQLVESGGGLVQPGGSLRLSCAASGFTFSSSAMSWARQAPGKGLECVSDIYPDGTSSYADSMKGRFTISRDNTRNTMYLQMNVLKPEDTATYYCVIGRGGYAMGDRRLRGQGTQVTVSS
### Prompt Select one. Lower MFI: 1 or 2 Answer by stating the label of the chosen item.
### Response 2
(2: 1260 MFI, 1: 2550 MFI)
